# Test system: Liver Tumor Cell (Huh-7 cell strain)
# assayText: MTT cell viability assay
# Type: cell-based
# experimentalConditions: Homo sapiens
propertyName: IC50
The number alone won't do; follow it with the unit.

Hello, I am looking for reported IC50 with Liver Tumor Cell (Huh-7 cell strain) for COC1=C(OC)C(=O)C(C)=C(C)C1=O . Could you help?
15.1 µM

----------
# System: breast tumor cells MDA-MB-453
# assayText: MTT cell viability assay
# Assay type: cell-based, human
# experimentalConditions: Homo sapiens; viability, MDA-MB-453 cell strain, Table 1
propertyName: pIC50
Quick note: pIC50 means taking -log10 of the concentration in moles per liter.

I am curious: what pIC50 value has been reported for COC1=C(OC)C(=O)C(C)=C(C)C1=O ?
4.44
